Listed molecules paired with reported TGI
test system: MCF7 breast; experiment: NCI tumour cell line growth inhibition, 48 h

MOLECULE | TGI
Fc1ccc(C(OCCN2CC3CCC(C2)N3CCCc2ccccc2)c2ccc(F)cc2)cc1 | 10.7 µM
O=C1c2ccc3c4c(ccc(c24)C(=O)N1CCCNCc1ccccc1Cl)C(=O)N(CCCNCc1ccccc1Cl)C3=O | 0.231 µM
Cc1cccc(N/C(Sc2ccccc2)=C(/C(Cl)=C(Cl)Cl)[N+](=O)[O-])c1 | 91.3 µM
CC(=O)[O][Sn]([CH2]c1ccccc1)([CH2]c1ccccc1)[CH2]c1ccccc1 | > 10 µM
O=C(NNC(=O)c1csc(NC(=S)NC2CCCCC2)n1)c1ccccc1 | > 100 µM
CCCCCCCCCCCCCCCCCCOCC(O)COP(=O)(O)OCC1OC(n2ccc(N)nc2=O)C(O)C1O (stereo not given) | > 100 µM
O=C1NOC(c2ccc(O)cc2)(c2ccc(O)cc2)c2ccccc21 | > 100 µM
O=C1CC(NCc2ccccc2)c2c(Cl)sc(Cl)c21 (stereo not given) | 50.3 µM
O=S(=O)(c1cccc2c(I)cccc12)N1CCCNCC1 | > 100 µM
ClCCCCCc1c2nc(c(CCCCCCl)c3ccc([nH]3)c(CCCCCCl)c3ccc([nH]3)c(CCCCCCl)c3nc1C=C3)C=C2 | > 100 µM
Nc1ccccc1C#C/C=C\C#Cc1cccc(O)c1 | 11.2 µM
COc1ccc(-c2c(C#N)c(S)n(NS(=O)(=O)c3ccccc3)c(=O)c2C#N)cc1 | > 100 µM
O=C(OCCNC(=O)N1CC1)OCCNC(=O)N1CC1 | > 10 µM
C[C@]12CC[C@@H]3c4ccc(O)cc4CC[C@H]3[C@@H]1Cc1cnc(N)nc12 | 47.7 µM
CC1=C(C(=O)N[C@@H](CC(C)C)C(=O)O)N2C(=O)[C@@H](NC(=O)C(N)c3ccccc3)[C@H]2SC1 (stereo not given in full) | > 100 µM
O=[N+]([O-])c1ccc(N2CCC(CCCC3CCN(c4ccc([N+](=O)[O-])cc4[N+](=O)[O-])CC3)CC2)c([N+](=O)[O-])c1 | 28.3 µM
COc1cnc2c(c1)C(=O)c1c-2n(CCCNC2=NCCS2)c(=O)c2cc(Cl)ccc12 | 1.32 µM
CCOC(=O)c1c(NC(=S)Nc2ccccc2)sc2c1CCOC2 | > 100 µM
O=C1C(SCCO)=C(SCCO)C(=O)N1c1ccc(-c2ccccc2)cc1 | 7.74 µM
CCOC(=O)C(Cl)(NC(=O)OCc1ccccc1)C(F)(F)F (stereo not given) | > 100 µM

Every entry's value here was drawn from PubChem BioAssay (NCI).
